Let's go through some recorded pEC50 values for LHRH binding sites on human ovarian cancer cells (EFO-27) together.
The read-out pEC50 is expressed as -log10 of concentration in moles per litre.

compound: N=C(N)NCCC[C@H](NC(=O)[C@@H](Cc1ccc2ccccc2c1)NC(=O)CN1CCN(CC(=O)O)CCN(CC(=O)O)CCN(CC(=O)O)CC1)C(=O)N[C@@H](Cc1c[nH]c2ccccc12)C(=O)N[C@@H](CO)C(=O)N[C@@H](Cc1cscn1)C(=O)N[C@H](CCCNC(=N)N)C(=O)N[C@@H](Cc1c[nH]c2ccccc12)C(=O)N[C@@H](Cc1ccc(C(=O)c2ccccc2)cc1)C(=O)N1CCC[C@H]1C(=O)NNC(N)=O [compound 2958]
pEC50: 6.15

Query string: So what pEC50 did N=C(N)NCCC[C@H](NC(=O)[C@@H](Cc1ccc2ccccc2c1)NC(=O)CN1CCN(CC(=O)O)CCN(CC(=O)O)CCN(CC(=O)O)CC1)C(=O)N[C@@H](Cc1c[nH]c2ccccc12)C(=O)N[C@@H](Cc1ccncc1)C(=O)N[C@@H](Cc1c[nH]cn1)C(=O)N[C@H](CCCNC(=N)N)C(=O)N[C@@H](Cc1c[nH]c2ccccc12)C(=O)N[C@@H](Cc1ccc(C(=O)c2ccccc2)cc1)C(=O)N1CCC[C@H]1C(=O)NNC(N)=O [compound 2957] get with LHRH binding sites on human ovarian cancer cells (EFO-27)?
Result string: 6.08
